- assayed_target: T1, human TIGIT on Jurkat cells (TIGIT/NFAT reporter Jurkat cells, BPS Bioscience #60538); Promega TIGIT Effector … (human, UniProt Q495A1 22-244)
- T1 sequence (looked up): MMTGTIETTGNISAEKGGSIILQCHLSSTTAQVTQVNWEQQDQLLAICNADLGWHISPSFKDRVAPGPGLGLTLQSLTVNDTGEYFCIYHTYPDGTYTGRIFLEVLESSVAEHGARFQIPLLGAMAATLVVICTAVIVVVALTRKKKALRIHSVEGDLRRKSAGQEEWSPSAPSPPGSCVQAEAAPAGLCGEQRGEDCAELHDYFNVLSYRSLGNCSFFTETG
- test_protocol: cell-based or functional assay
max. signal (% of 22G2) by entry:

Guide cases for max. signal (% of 22G2), answers given:
>  <binder>
43586p1.2.E1 (scFv, V domains shown) VH: EVQLLESGGGLVQPGGSLRLSCAASGFTFSDYLMTWVRQAPGKELEWVSTITWDGDRTYYADSVKGRFTISRDNSKNTLYLQMNSLRAEDTAVYYCAKHWTVFQYGMDVWGQGTTVTVSS VL: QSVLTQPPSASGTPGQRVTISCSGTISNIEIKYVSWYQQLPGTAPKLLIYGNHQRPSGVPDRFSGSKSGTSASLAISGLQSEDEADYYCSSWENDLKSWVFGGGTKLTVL

>  <max. signal (% of 22G2)>
111 % of 22G2

$$$$
>  <binder>
43586p2.D05 (scFv, V domains shown) VH: EVQLLESGGGLVQPGGSLRLSCAASGFTFDDYVMSWVRQAPGKGLEWVSLINWNGDKTYYADSVKGRFTISRDNSKNTLYLQMNSLRAEDTAVYYCARHWIVFQYGLDIWGQGTTVTVSS VL: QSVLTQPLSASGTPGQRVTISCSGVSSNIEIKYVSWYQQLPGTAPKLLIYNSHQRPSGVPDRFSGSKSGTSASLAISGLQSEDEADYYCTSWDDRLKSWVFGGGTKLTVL

>  <max. signal (% of 22G2)>
118 % of 22G2

$$$$

The binder listed as 43586p2.D01 (scFv, V domains shown) VH: EVQLLESGGGLVQPGGSLRLSCAASGFTVSSNWMSWVRQAPGKGLEWVSTTSSSSWNNYTYYADSVKGRFTISRDNSKNTLYLQMNSLRAEDTAVYYCAKGSYGMDVWGQGTTVTVSS VL: QSVLTQPPSASGTPGQRVTISCSGSNSNIGAKYLYWYQQLPGTAPKLLIYLNDQRPSGVPDRFSGSKSGTSASLAISGLQSEDEADYYCAFWDDHLKGWVFGGGTKLTVL has a reported max. signal (% of 22G2) of 103 % of 22G2

// max. signal (% of 22G2) value for 43645p1.E3 (scFv, V domains shown) VH: EVQLLESGGGLVQPGGSLRLSCAASGFTFSSYAMSWVRQAPGKGLEWVSAIYFDGSIYDADSVKGRFTISRDNSKNTLYLQMNSLRDEDTAVYYCAKSHTVLQYGMDVWGQGTTVTVSS VL: QSVLTQPPSASGTPGQRVTISCSGVTSNIRNSYVSWYQQLPGTAPKLLIYGNDQRPSGVPDRFSGSKSGTSASLAISGLQSEDEADYYCGTWDNTLNAWVFGGGTKLTVL : 103 % of 22G2

The recorded max. signal (% of 22G2) for 43586p1.2.B2 (scFv, V domains shown) VH: EMQLLESGGGLVQPGGSLRLSCAASGFTFDDYVMSWVRQAPGKGLEWVSLINWNGDKTYYADSVKGRFTISRDNSKNTLYLQMNSLRAEDTAIYYCAKHWIVFQYGMDVWGQGTTVTVSS VL: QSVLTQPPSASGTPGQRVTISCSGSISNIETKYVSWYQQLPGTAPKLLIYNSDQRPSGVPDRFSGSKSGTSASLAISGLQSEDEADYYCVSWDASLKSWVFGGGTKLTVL is 121 % of 22G2

GET /value?item= 43645p1.D7 (scFv, V domains shown) VH: EVQLLESGGGLVQPGGSLRLSCAASGFTFSRNSMSWVRQAPGKGLEWVSTINSGSSYTYYADSVKGRFTISRDNSKNTLYLQMNSLRAEDTAVYYCAKDNCNGYHCYGMDVWGLGTTVTVSS VL: QSVLTQPPSASGTPGQRVTISCSGSTSNVGDHYVHWYQQLPGTAPKLLIYKDDQRPSGVPDRFSGSKSGTSASLAISGLQSEDEADYYCSTWDNTLNGWVFGGGTKLTVL &field=max. signal (% of 22G2) returns 57 % of 22G2

Field max. signal (% of 22G2) (entry 43586p1.2.C5 (scFv, V domains shown) VH: EVQLLESGGGLVQPGGSLRLSCAASGFTVSDHYMSWVRQAPGKGLEWVSTTSSTSWKNYTYYADSVKGRFSISRDNSENTLYLQMNGLRAEDTAVYYCAKGSYGMDVWGQGTTVTVSS VL: QSVLTQPPSASGTPGQRVTISCSGSNFNIGTKYLYWYQQLPGTAPKLLIYLDSQRPSGVPDRFSTSKPGTSASLAISGLQSEDEADYYCALWDDHLHGWVFGGGTKLTVL ) reads 91 % of 22G2

Form: binder = 43645p1.C11 (scFv, V domains shown) VH: EVQLLESGGGLVQPGGSLRPSCATSGFTFSSYWMSWVRQAPGKGLEWVSGIHISDSTYYADSVKGRFTISRDNSKNTLYLQMNSLRAEDTAVYYCAKGHTVLQYGMDVWGQGTTVTVSS VL: QSGLTQPPSASGTPGQRVTISCSGDISNTRNNYVSWYQQLPGTAPKLLIYGNHQRPSGVPDRFSGSKSATSASLAISGLQSEDEADYYCGTWDNTLNAWVFGGGTKLTVL ; max. signal (% of 22G2) = 119 % of 22G2

Per the records, this binder ( 43586p2.G10 (scFv, V domains shown) VH: EVQLLESGGGLVQPGGSLRLSCAASGFTFDDYVMSWVRQAPGKGLEWVSLINWSGGTTYYADSVKGRFTISRDNSKNTLYLQMNSLRAEDTAVYYCAKHWIVYQYGMDVWGQGTTVTVSS VL: QSVLTQPSSASGTPGQRVTISCSGTISNIETKYVSWYKYVSWYQQLPGTAPKLLIYNNVQRPSGVPDRFSGSQSGTSASLAISGLQSEDEAHYYCASWEGGLNSWVFGGGTKLTVL ) has max. signal (% of 22G2) equal to 99 % of 22G2

Entry 43586p1.2.G10 (scFv, V domains shown) VH: EVQLLESGGGLVQPGGSLRLSCAASGFTFDDYVMSWVRQAPGKELEWVSLINWNGDKTCYADSVKGRFTISRDNSKNTLYLQMNSLRAEDTAIYYCAKHWIVFQYGMDVWGQGTTVTVSS VL: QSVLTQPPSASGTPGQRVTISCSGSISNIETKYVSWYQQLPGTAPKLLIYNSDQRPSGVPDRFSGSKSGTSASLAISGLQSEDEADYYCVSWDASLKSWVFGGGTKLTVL — recorded max. signal (% of 22G2) = 96 % of 22G2
